These entries and their values trace back to ChEMBL document CHEMBL1649420.

- target or test system: Matrix metalloproteinase-9 (Homo sapiens) (UniProt P14780);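 further: recombinant human MMP9, activity read after 30 min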
- Sequence (P14780 whole entry): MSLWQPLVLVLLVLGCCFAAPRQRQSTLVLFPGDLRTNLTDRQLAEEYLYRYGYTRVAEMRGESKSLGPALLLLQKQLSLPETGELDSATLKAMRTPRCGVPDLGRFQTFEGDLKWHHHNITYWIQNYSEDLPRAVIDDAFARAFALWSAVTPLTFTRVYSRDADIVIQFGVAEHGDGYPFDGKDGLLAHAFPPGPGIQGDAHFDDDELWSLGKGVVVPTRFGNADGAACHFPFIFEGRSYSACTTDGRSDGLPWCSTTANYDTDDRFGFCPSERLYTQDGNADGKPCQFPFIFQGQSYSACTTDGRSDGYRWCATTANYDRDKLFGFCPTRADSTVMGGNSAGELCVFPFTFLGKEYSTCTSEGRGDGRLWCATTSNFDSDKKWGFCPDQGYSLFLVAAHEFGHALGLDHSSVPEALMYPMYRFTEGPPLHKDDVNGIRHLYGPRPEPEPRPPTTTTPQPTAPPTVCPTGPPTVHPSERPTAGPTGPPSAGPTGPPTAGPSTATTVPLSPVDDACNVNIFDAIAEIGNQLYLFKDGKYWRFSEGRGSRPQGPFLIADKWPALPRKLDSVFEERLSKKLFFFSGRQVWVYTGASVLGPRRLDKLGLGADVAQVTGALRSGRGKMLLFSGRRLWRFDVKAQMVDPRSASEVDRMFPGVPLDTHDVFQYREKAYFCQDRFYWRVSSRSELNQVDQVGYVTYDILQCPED
- recorded conditions: at 1 mM
metric: inhibition (%)
Express the result in % but write the number alone.

Some compounds with known inhibition results, for comparison:
Qu. Would you mind telling me what inhibition value was observed for Nc1[nH]cnc2ncnc1-2 ?
Ans. -3

Qu. Also check O=C(O)c1cccc(=O)n1O
Ans. 66

Next up:
Qu. Query (compound): CCn1ccc(=S)c(O)c1C ; field requested: inhibition
Ans. 100

* * *

# inhibition values compiled below
- target or test system: Nitric oxide synthase, inducible (Mus musculus)
- Sequence (whole entry): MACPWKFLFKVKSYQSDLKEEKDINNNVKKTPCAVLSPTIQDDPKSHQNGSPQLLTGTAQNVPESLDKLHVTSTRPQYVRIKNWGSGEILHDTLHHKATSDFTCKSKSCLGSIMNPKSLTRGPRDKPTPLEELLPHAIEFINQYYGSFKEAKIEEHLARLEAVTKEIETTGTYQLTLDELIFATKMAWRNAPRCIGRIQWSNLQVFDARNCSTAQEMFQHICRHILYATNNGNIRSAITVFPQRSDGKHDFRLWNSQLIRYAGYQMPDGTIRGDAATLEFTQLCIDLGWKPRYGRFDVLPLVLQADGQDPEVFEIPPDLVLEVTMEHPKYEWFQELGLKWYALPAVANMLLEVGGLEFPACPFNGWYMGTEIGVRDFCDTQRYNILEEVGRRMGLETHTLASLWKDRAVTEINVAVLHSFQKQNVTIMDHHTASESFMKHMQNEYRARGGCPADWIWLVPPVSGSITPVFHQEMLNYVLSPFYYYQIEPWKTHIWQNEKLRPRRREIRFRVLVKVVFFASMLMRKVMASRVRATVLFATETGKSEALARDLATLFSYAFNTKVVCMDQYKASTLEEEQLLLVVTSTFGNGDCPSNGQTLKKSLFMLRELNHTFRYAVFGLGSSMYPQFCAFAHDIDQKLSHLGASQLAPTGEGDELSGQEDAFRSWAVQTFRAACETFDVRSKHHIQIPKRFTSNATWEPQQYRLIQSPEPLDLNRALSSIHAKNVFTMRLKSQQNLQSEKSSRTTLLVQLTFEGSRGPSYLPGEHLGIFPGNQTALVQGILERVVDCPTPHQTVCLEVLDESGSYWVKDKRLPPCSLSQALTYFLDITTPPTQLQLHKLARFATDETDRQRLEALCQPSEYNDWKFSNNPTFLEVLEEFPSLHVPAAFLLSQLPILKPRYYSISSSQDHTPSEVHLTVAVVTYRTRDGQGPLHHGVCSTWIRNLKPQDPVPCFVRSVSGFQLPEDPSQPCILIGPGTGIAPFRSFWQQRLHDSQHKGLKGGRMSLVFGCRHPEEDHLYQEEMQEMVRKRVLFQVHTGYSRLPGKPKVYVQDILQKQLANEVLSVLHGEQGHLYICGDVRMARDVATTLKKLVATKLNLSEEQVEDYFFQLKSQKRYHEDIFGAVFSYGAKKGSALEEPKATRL
- recorded conditions: at 1 mM
Answer as a quantity: numeral, then unit.

Examples from the recorded data:
Qu. # returns recorded inhibition (system: Nitric oxide synthase, inducible (Mus musculus)) for CCc1c(O)c(=O)ccn1CC
Ans. 8%

Qu. Next compound up: O=C(O)c1cccc(Br)n1
Ans. 17%

Qu. Now the compound O=C(O)c1cccc(=O)n1O
Ans. -5%

Qu. Now consider Cc1nc(O)nc(O)c1C .
Ans. 46%

Next:
Qu. // lookup inhibition | system=Nitric oxide synthase, inducible (Mus musculus) | key= Cc1cc(O)nc(C)n1;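 further: recombinant enzyme, activity read out colorimetrically after 40 min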
Ans. 8%

Qu. Now give it for O=C(O)c1ccc2ccccc2n1 too.
Ans. 11%

Qu. One more compound: CC(=O)C(C)C(C)=O
Ans. 7%

Qu. Moving on to the next compound: Oc1ccccc1O
Ans. 28%

Qu. One more compound: O=C(O)c1ccc(C(=O)O)nc1
Ans. -4%

Qu. Similarly, Cc1cc(=O)c(O)c(CO)o1 ?
Ans. 9%

Qu. Also need [O-][n+]1cccc2cccc(O)c21 , thanks.
Ans. 28%

Qu. And then O=c1ccocc1O , what is it?
Ans. 22%
